The reported numbers originate from PubChem BioAssay (NCI).

system: SK-MEL-28 melanoma; assay: NCI-60 one-dose screen, 48 h (100 = growth as untreated, 0 = no growth, -100 = all killed); conditions: 10 µM
Compounds without any hit were thinned out: in the full panel of roughly 83,000, 20% have a hit.
Consider the cut-off 40%. If the recorded growth is strictly smaller, the label is y; if not, the label is n.

Some entries whose results are on file:
> print(dat)
                        structure.as.smiles   target.under.test  label.class
1  CC1(C)CC(=O)C2=C(C1)N(Cc1ccc(C(=O)O)cc1)C1=C(C(=O)CC(C)(C)C1)C2c1ccc(Cl)cc1  SK-MEL-28 melanoma            n
2  COc1cccc(O)c1/C=C1\SCc2cc3c(OC)cccc3[o+]c21  SK-MEL-28 melanoma            n
3  O=C(CN1CCN(c2ncnc3c2cnn3-c2ccccc2)CC1)Nc1ccc(Br)cc1  SK-MEL-28 melanoma            n
4  O=[N+]([O-])c1cccc(-c2nnc3c(/C=C/c4ccccc4O)nc4ccccc4n23)c1  SK-MEL-28 melanoma            y
5  O=C(Nc1ccc(OCc2ccc(F)cc2)cc1)Nc1ccc(Cl)c(C(F)(F)F)c1  SK-MEL-28 melanoma            y
6  O=C(CC(=O)Nc1ccc(Oc2ncnc3scc(Nc4n[nH]c(=S)s4)c23)cc1)Nc1ccc(Br)cc1  SK-MEL-28 melanoma            n

Is growth strictly under 40% for the entry COc1ccc2[nH]cc(-c3nc(N)nnc3-c3cn(C)c4ncc(Br)cc34)c2c1 ?
y

API: query returns whether the molecule falls strictly under 40% in growth. Query: COc1ccc(-n2c(SCC(=O)NNS(=O)(=O)c3ccccc3)nc3ccc(Cl)cc3c2=O)cc1
n
